- target under test: UniProt:Q07889
- experimental protocol: SOS-mediated nucleotide exchange on Ras (BODIPY-GDP fluorescence)
- details: SOS-mediated exchange of BODIPY-GDP for GTP on Ras
Counter-ions that a name gives are not always drawn.
parameter: EC50

compound="Cc1cc(Cn2c(NCCN)nc3c(OCCN4CCCC4)cccc32)ccc1F [Example 207]" parameter=EC50 result="< 1 µM"
compound="Cc1cc(Cn2c(NCCN)nc3c(-c4ccccc4Cl)cc(Cl)cc32)cc(C)c1F [Example 306]" parameter=EC50 result="1 to 5 µM"
compound="Cc1cc2c(nc(N3CCNCC3)n2Cc2ccc(F)c(Cl)c2)c(-c2cccnc2)c1C [Example 265]" parameter=EC50 result="1 to 5 µM"
compound="Cc1cc(CN2CCCCC2)c2ncn(Cc3ccc(F)c(Cl)c3)c2c1 [Example 144, trifluoroacetate]" parameter=EC50 result="30 to 100 µM"
compound="Cc1cc(Cn2c(N3CCNCC3)nc3c(-c4c(C)cccc4C#Cc4ccccc4Cl)cc(Cl)cc32)cc(C)c1F [Example 184, trifluoroacetate]" parameter=EC50 result="1 to 5 µM"

Problem: Note EC50 for the compound shown: CC[C@H](N)c1cc(Cl)cc2c1nc(NCCN)n2Cc1cc(C)c(F)c(C)c1 [Example 158, trifluoroacetate]
Solution: 1 to 5 µM

Problem: Note EC50 for the compound shown: CCc1cc(Cn2c(N3CCNCC3)nc3cc(C)c(C)cc32)cc(Cl)c1F [Example 48, trifluoroacetate]
Solution: 1 to 5 µM

Problem: Note EC50 for the compound shown: Cc1cc2c(nc(N3CCNCC3)n2Cc2ccc(F)c(C)c2)c(CNC(C)C)n1 [Example 233]
Solution: 5 to 30 µM

Problem: Note EC50 for the compound shown: Cc1cc2c(nc(N3CCNCC3)n2Cc2cc(C)c(F)c(C)c2)c(CCN)c1C [Example 102, trifluoroacetate]
Solution: 1 to 5 µM

Problem: Note EC50 for the compound shown: CCc1cc2c(cc1C)nc(N1CCNCC1)n2Cc1ccc(F)c(Cl)c1 [Example 66, trifluoroacetate]
Solution: 5 to 30 µM

Problem: Note EC50 for the compound shown: NCCc1cccc2c1nc(N1CCNCC1)n2Cc1ccc(F)c(Cl)c1 [Example 98, trifluoroacetate]
Solution: 1 to 5 µM

Problem: Note EC50 for the compound shown: Nc1nc2ccccc2n1Cc1ccc(F)c(Cl)c1 [Example 2]
Solution: 30 to 100 µM

Problem: Note EC50 for the compound shown: Cc1cc(N2CCNCC2)c2nc(N3CCNCC3)n(Cc3cc(C)c(F)c(C)c3)c2c1 [Example 190, trifluoroacetate]
Solution: < 1 µM

Problem: Note EC50 for the compound shown: Cc1cc2nc(-c3ccncc3)n(Cc3cc(F)cc(F)c3)c2cc1C [Example 53]
Solution: 30 to 100 µM

Problem: Note EC50 for the compound shown: Cc1cc(-c2c(C)nn(C)c2C)c2nc(N3CCNCC3)n(Cc3ccc(F)c(Cl)c3)c2c1 [Example 121, trifluoroacetate]
Solution: < 1 µM

---

pKi: −log10 of the molar value. Counter-ions that a name gives are not always drawn.
Here's a batch of compounds along with measured pKi for Son of Sevenless (SOS) (Homo sapiens).

compound="Fc1ccc(Cn2c(N3CCNCC3)nc3ccc(Cl)cc32)cc1Cl [Example 73, trifluoroacetate]" result="6.00 to 6.30"
compound="CC(C)c1ccc(-n2nccc2-c2cc(Cl)cc3c2nc(N2CCNCC2)n3Cc2ccc(F)c(Cl)c2)cc1 [Example 169, trifluoroacetate]" result="< 5.30"
compound="CCCNCc1c(C)c(C)cc2c1nc(N1CCNCC1)n2Cc1cc(C)c(F)c(C)c1 [Example 132, trifluoroacetate]" result="5.30 to 6.00"

Turning to the following compound.
Problem: Send back Son of Sevenless (SOS) (Homo sapiens) pKi of Cc1cc(NC[C@H]2CCNC2)c2nc(N3CCNCC3)n(Cc3cc(C)c(F)c(C)c3)c2c1 [Example 198, trifluoroacetate] only.
Solution: 6.00 to 6.30

---

- target under test: Ras GEF SOS (Son of Sevenless) (Homo sapiens, UniProt Q07889)
- experimental protocol: SOS-mediated nucleotide exchange on Ras (BODIPY-GDP fluorescence)
- details: SOS-mediated exchange of BODIPY-GDP for GTP on Ras
Counter-ions that a name gives are not always drawn.
Let's look at some compounds and their measured EC50.

Example entries and their recorded answers appear below.
compound="CN(CCO)Cc1cc(Cl)cc2c1nc(N1CCNCC1)n2Cc1ccc(F)c(Cl)c1 [Example 134, trifluoroacetate]" target_under_test="Ras GEF SOS (Son of Sevenless) (Homo sapiens, UniProt Q07889)" parameter=EC50 result="< 1 µM"
compound="Cc1cc(Cn2c(NCCN)nc3c(-c4ccccc4)nccc32)ccc1F [Example 221]" target_under_test="Ras GEF SOS (Son of Sevenless) (Homo sapiens, UniProt Q07889)" parameter=EC50 result="30 to 100 µM"
compound="Cc1cc(Cn2c(N3CCNCC3)nc3c(N(C)C)cc(Cl)cc32)cc(C)c1F [Example 296]" target_under_test="Ras GEF SOS (Son of Sevenless) (Homo sapiens, UniProt Q07889)" parameter=EC50 result="1 to 5 µM"

Problem: Note EC50 for the compound shown: Cc1ccc2nc([C@@H](N)C(C)C)n(Cc3cccc(Cl)c3)c2c1 [Example 270]
Solution: 30 to 100 µM

---

Let's look at some compounds and their measured Ki.
- target under test: Son of Sevenless (SOS) (Homo sapiens, UniProt Q07889)
- Sequence (Q07889 564-1049 limits assumed): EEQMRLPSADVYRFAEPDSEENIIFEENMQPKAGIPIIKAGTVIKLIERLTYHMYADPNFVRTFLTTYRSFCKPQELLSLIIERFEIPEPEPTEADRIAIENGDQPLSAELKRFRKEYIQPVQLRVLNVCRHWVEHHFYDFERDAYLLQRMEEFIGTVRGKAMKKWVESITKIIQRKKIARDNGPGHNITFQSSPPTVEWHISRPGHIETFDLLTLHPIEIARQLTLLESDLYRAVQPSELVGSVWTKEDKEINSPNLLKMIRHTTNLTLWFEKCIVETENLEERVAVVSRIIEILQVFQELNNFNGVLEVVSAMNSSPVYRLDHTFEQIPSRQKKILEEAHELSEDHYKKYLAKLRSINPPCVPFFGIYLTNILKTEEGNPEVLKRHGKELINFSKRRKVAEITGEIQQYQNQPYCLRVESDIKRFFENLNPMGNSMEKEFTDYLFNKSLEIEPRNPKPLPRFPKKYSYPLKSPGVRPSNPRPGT
Where a name gives a salt, the structure may show the parent alone.

compound="C=C[C@H](N)c1cc(C)cc2c1nc(N1CCNCC1)n2Cc1cc(C)c(F)c(C)c1 [Example 162, trifluoroacetate]" result="1000 to 5000 nM"
compound="Cc1cc(OCC2CCNCC2)c2nc(N3CCNCC3)n(Cc3cc(C)c(F)c(C)c3)c2c1 [Example 202]" result="500 to 1000 nM"
compound="NCCNc1nc2ccc(C(F)(F)F)cc2n1Cc1ccc(F)c(Cl)c1 [Example 72, trifluoroacetate]" result="1000 to 5000 nM"

Problem: Note Ki for the compound shown: Cc1cc2nc(N3CCNCC3)n(Cc3ccc(Br)c(Cl)c3)c2cc1C [Example 39, trifluoroacetate]
Solution: > 5000 nM

Problem: Note Ki for the compound shown: Cc1cc(Cn2c(N3CCNCC3)nc3c([C@@H](N)c4ccccc4)cc(Cl)cc32)cc(C)c1F [Example 159, trifluoroacetate]
Solution: < 500 nM

Problem: Note Ki for the compound shown: CN(CCCO)Cc1cc(Cl)cc2c1nc(N1CCNCC1)n2Cc1ccc(F)c(Cl)c1 [Example 135, trifluoroacetate]
Solution: 1000 to 5000 nM

Problem: Note Ki for the compound shown: Cc1cc(Cn2c(NCC3CNC3)nc3c(N4CCNCC4)cc(Cl)cc32)cc(C)c1F [Example 309]
Solution: < 500 nM

Problem: Note Ki for the compound shown: Cc1cc(CN2CCOCC2)c2nc(N3CCNCC3)n(Cc3cc(C)c(F)c(C)c3)c2c1 [Example 127, trifluoroacetate]
Solution: 1000 to 5000 nM

Problem: Note Ki for the compound shown: CCc1cc(Cn2c(N3CCNCC3)nc3cc(C)c(C)cc32)cc(CC)c1F [Example 49, trifluoroacetate]
Solution: > 5000 nM

Problem: Note Ki for the compound shown: CNCCN(C)c1cc(C)cc2c1nc(N1CCNCC1)n2Cc1cc(C)c(F)c(C)c1 [Example 192, trifluoroacetate]
Solution: 500 to 1000 nM

Problem: Note Ki for the compound shown: Cc1cc2c(nc(N3CCNCC3)n2Cc2ccc(F)c(Cl)c2)c(-c2ccnn2-c2ccc(Br)cc2)c1C [Example 172, trifluoroacetate]
Solution: 1000 to 5000 nM

Problem: Note Ki for the compound shown: Cc1cc2c(nc(N3CCNCC3)n2Cc2ccc(Cl)cc2)c(-c2ccccc2Cl)c1C [Example 106, trifluoroacetate]
Solution: 1000 to 5000 nM

Problem: Note Ki for the compound shown: Cc1cc(Cn2c(N3CCNCC3)nc3c(C#Cc4ccccc4)cc(Cl)cc32)cc(C)c1F [Example 123, trifluoroacetate]
Solution: 1000 to 5000 nM

Problem: Note Ki for the compound shown: Cc1cc(Cn2c(N3CCNCC3)nc3c(C(N)C(=O)O)cc(Cl)cc32)cc(C)c1F (centres unmarked) [Example 282]
Solution: 500 to 1000 nM

Problem: Note Ki for the compound shown: Fc1cc(F)cc(Cn2c(N3CCNCC3)nc3c(-c4ccccc4F)cccc32)c1 [Example 90]
Solution: 1000 to 5000 nM

Problem: Note Ki for the compound shown: Cc1cc(Cn2c(N3CCNCC3)nc3c(CN4CCCC4)cc(Cl)cc32)cc(C)c1F [Example 130, trifluoroacetate]
Solution: < 500 nM
